# Target Or Test System: Myo3, P36006
# Assay Text: SPOT array
# Test Parameters: median of control spots 468
Assay Endpoint: SPOT intensity

Examples with answers:
INSERT INTO measurements (binder, assay_endpoint, experimental_result) VALUES
  ('NQARKPFLLPATELS', 'SPOT intensity', 1),
  ('LKHGWKPLRPIKLIS', 'SPOT intensity', 0),
  ('RKRAPTPPAPSRSEK', 'SPOT intensity', 20);

1. MKRSRPSRSIPYTTP
2. VRTRRRPPPPPIPST
Could you tell me which of 1 and 2 has the lower SPOT intensity reading? Mark your answer with the label of the selected entry.
1
(1: 5, 2: 296)

A. SSSSSPPPLPTRRDH
B. IPSRPAPKPPSSASA
Could you tell me which of A and B has the lower SPOT intensity reading? Mark your answer with the label of the selected entry.
A

A. VNIPSPSSSPPPIPK
B. HHNRRKPLEVYFKAT
Could you tell me which of A and B has the lower SPOT intensity reading? Mark your answer with the label of the selected entry.
B
(B: 3, A: 464)

1. EEEEEHPPLPARRKS
2. LTRRFPFLFPFDTRM
3. TTNRGPPPLPPRANV
4. PVLPPPRSPNRPTLS
Please put the entries in order of rising SPOT intensity. To answer, write out the labels according to the requested order.
1, 2, 4, 3
(1: 0, 2: 4, 4: 22, 3: 129)

a. RRLRDKYKLPIVDAD
b. RPVPRRPSQPLNTLS
Compare a and b by numeric SPOT intensity and name the larger one. Mark your answer with the label of the selected entry.
b
(b: 5, a: 0)
